Test system: SNB-19
procedure summary: NCI tumour cell line growth inhibition, 48 h
Calls of active or inactive are those of the source. Rule as the data show it: active = GI50 up to about 1.1 µM and inactive = higher.
measured parameter: GI50

CC(C)(C)OC(=O)NCCCCC(N)C(N)=O (stereo not given)
> 100 µM (inactive)

Turning to the following compound.
## Task Give GI50 for COC(=O)C1=C(CCCCO[Si](C)(C)C(C)(C)C)NC(=O)N2[C@@H](CCOCc3ccccc3)CC[C@H]12
## Result 23.6 µM (inactive)

====

The entries below are paired with their reported GI50.
Tested on: PC-3
procedure summary: NCI tumour cell line growth inhibition, 48 h
Active and inactive are the calls of the source. No stated cut-off is given here; in the data, active = GI50 up to about 1.1 µM and inactive = higher.

Worked set:
CC(C)(C)OC(=O)NCCCCC(N)C(N)=O (configuration not stated)
> 100 µM (inactive)
C=C1C(=O)OC2C1C(=O)C/C(C)=C/CCC1(C)OC21 (configuration not stated)
18.1 µM (inactive)
Cn1cc(C=C(C#N)C#N)c(=O)n(C)c1=O
> 100 µM (inactive)
Cc1c2ccccc2c(C2C3C(=O)N(c4ccc(Br)cc4)C(=O)C3ON2C(C(N)=O)c2ccccc2)c2ccccc12 (configuration not stated)
4.86 µM (inactive)
O=C1CN(c2ccccc2)C(=O)CN1NCNN1CC(=O)N(c2ccccc2)CC1=O
> 100 µM (inactive)

## Task Give GI50 for CN(C)c1ccc(C2SCC(=O)N2c2ccc(Oc3ccc(Cl)cc3)c(Cl)c2)cc1 (configuration not stated)
## Result 19.9 µM (inactive)

## Task Give GI50 for Clc1ncnc(Cl)c1Cl
## Result > 100 µM (inactive)

====

Tested on: DMS-114
procedure summary: NCI tumour cell line growth inhibition, 48 h
Calls of active or inactive are those of the source. Rule as the data show it: active = GI50 up to about 1.1 µM and inactive = higher.
The entries below are paired with their reported GI50.

Worked set:
N#CC1=C(c2ccccc2)OC2(N)OC(c3ccccc3)=C(C#N)C12C#N (stereo not given)
51.5 µM (inactive)
O=c1[nH]cc(F)c(=O)n1C1OC(CO)C(O)C1O (stereo not given)
> 100 µM (inactive)
COC(=O)C1=C(C)C(=O)[C@H]2C(C(=O)OC)CCCC[C@@H]12 (stereo not given in full)
20.9 µM (inactive)
CSCC[C@@H](NC(=O)[C@H](CC(C)C)NC(=O)C(Cc1cnc[nH]1)NC(=O)CNC(=O)[C@@H](NC(=O)[C@H](C)NC(=O)[C@H](Cc1cn(C=O)c2ccccc12)NC(=O)[C@H](CCC(N)=O)NC(=O)[C@@H](N)CC(N)=O)C(C)C)C(N)=O (stereo not given in full)
> 100 µM (inactive)

Turning to the following compound.
## Task Please report GI50 with DMS-114 for item CC(/C(=N/NC(=O)C(N)=O)c1c(Cl)ccc(Cl)c1O)C1(O)C(=O)Nc2ccccc21 (stereo not given) .
## Result 34.4 µM (inactive)

====

System: T47D
procedure summary: NCI tumour cell line growth inhibition, 48 h
Activity calls are given as the source filed them. No stated cut-off is given here; in the data, active = GI50 up to about 1.1 µM and inactive = higher. Numbered stars: 1 amine (or outer) side, 2 acyl side, 3 side chain; on linkers, the order of the positions; unused ones are H or OH. Square brackets hold non-standard residues; d marks the D form. Peptide text beside a SMILES is read from it. * marks the point of attachment. X30 = CC(=O)N(C)SCC(N[*:1])C(=O)[*:2]; Cbz = O=C(OCc1ccccc1)*; Bn = c1ccc(C*)cc1
Just give me one of these, please: y = active, n = inactive

CC(=O)N(C)SCC(NC(=O)C(Cc1ccccc1)NC(=O)OCc1ccccc1)C(=O)NC(Cc1ccccc1)C(=O)NC(Cc1c[nH]c2ccccc12)C(=O)NC(CCCCNC(=O)OCc1ccccc1)C(=O)NC(C(=O)NC(CSN(C)C(C)=O)C(=O)NC(C(N)=O)C(C)OCc1ccccc1)C(C)OCc1ccccc1 (centres undefined) (Cbz-F[X30]FWK(Cbz)T(Bn)[X30]T(Bn)-NH2; configuration not given here)
n
Cc1ccc(S(=O)(=O)NC(CN)C(=O)O)cc1 (centres undefined)
n
CCC1=[N+](CC)CCN1CC
n

# evaluate next
## Task Dear all, I need the recorded test outcome for O=C1C=C/C(=N/c2cccc3c(/N=C4/C=CC(=O)O4)cccc23)O1 , thank you.
## Result n
